Ref: ChEMBL document CHEMBL3808355

system: Human immunodeficiency virus 1; assay: Antiviral activity against HIV-1 3B infected in human MT4 cells assessed as inhibition of virus-induced cytopathic effect by MTT assay; format: functional, organism-based; settings: Human immunodeficiency virus 1, 3B
List of pEC50 values.
Keep in mind that pEC50 stands for -log10 of concentration in molar terms.

Molecular string	Target entity	pEC50
CO/N=C(\Cl)CCC/C=C(\c1cc(C)c(OC)c(C(=O)SC)c1)c1cc(C)c2oc(=O)n(C)c2c1	Human immunodeficiency virus 1	6.27

Ask: Answer with the recorded pEC50 for the compound listed here: `CO/N=C(\Cl)c1cc(/C(=C\CCCc2nc(C)no2)c2cc(C)c3onc(OC)c3c2)cc(C)c1OC`
Result: 5.38

Ask: Answer with the recorded pEC50 for the compound listed here: `CO/N=C(\F)c1cc(/C(=C\CCCc2nc(C)no2)c2ccc(C#N)cc2)cc(C)c1OC`
Result: 5.26

Ask: Answer with the recorded pEC50 for the compound listed here: `CO/N=C(\F)c1cc(/C(=C\CCCc2nc(C)no2)c2cc(C)c3onc(OC)c3c2)cc(C)c1OC`
Result: 5.39
